- Measured Target: FGFR3 (UniProt P22607)
- Sequence (P22607 whole entry, looked up): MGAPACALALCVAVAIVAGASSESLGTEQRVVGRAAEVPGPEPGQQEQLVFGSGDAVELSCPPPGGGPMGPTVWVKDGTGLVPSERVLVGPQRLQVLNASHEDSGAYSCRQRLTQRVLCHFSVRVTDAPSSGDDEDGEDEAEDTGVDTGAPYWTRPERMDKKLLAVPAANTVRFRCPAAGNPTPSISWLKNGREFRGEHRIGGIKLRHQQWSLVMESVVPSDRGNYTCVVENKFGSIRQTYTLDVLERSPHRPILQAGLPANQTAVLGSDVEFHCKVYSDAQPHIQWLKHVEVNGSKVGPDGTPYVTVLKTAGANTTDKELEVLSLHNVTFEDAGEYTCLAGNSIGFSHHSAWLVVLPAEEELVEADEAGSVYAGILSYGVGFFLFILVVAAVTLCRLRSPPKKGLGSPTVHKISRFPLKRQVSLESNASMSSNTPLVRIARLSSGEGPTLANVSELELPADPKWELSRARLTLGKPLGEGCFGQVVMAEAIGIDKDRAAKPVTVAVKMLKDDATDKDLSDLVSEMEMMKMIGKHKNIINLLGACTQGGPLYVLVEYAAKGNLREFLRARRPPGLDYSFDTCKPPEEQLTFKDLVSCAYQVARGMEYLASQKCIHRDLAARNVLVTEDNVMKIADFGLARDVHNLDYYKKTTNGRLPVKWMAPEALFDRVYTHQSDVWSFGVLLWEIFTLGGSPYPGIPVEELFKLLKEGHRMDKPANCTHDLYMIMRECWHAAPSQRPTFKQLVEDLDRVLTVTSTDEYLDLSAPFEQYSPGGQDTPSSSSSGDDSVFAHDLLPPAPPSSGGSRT
- Test Method Notes: phosphorylation enrichment, bacterial display (enrichment ratio); higher = better substrate or ligand; peptides without Tyr show the background
Everything with phosphorylation enrichment lower than 0.6 is -1; everything else, including exactly 0.6, is 1.

Consider the following illustrative entries.
Item Sequence: STLEVYSCHPP [IL21R_Y317]
Category Label: 1
//
Item Sequence: RLQEGYDHSYY [ESD_Y258]
Category Label: 1
//
Item Sequence: AFGEVYEGQES [ALK_Y1131_V1135E]
Category Label: 1

Query: Reported phosphorylation enrichment at or above 0.6? DAHFTYSRFPW [LY75_Y888_D884A_YF]
Reply: 1

###

- Measured Target: Jak2 (UniProt O60674)
- Sequence (O60674 whole entry, looked up): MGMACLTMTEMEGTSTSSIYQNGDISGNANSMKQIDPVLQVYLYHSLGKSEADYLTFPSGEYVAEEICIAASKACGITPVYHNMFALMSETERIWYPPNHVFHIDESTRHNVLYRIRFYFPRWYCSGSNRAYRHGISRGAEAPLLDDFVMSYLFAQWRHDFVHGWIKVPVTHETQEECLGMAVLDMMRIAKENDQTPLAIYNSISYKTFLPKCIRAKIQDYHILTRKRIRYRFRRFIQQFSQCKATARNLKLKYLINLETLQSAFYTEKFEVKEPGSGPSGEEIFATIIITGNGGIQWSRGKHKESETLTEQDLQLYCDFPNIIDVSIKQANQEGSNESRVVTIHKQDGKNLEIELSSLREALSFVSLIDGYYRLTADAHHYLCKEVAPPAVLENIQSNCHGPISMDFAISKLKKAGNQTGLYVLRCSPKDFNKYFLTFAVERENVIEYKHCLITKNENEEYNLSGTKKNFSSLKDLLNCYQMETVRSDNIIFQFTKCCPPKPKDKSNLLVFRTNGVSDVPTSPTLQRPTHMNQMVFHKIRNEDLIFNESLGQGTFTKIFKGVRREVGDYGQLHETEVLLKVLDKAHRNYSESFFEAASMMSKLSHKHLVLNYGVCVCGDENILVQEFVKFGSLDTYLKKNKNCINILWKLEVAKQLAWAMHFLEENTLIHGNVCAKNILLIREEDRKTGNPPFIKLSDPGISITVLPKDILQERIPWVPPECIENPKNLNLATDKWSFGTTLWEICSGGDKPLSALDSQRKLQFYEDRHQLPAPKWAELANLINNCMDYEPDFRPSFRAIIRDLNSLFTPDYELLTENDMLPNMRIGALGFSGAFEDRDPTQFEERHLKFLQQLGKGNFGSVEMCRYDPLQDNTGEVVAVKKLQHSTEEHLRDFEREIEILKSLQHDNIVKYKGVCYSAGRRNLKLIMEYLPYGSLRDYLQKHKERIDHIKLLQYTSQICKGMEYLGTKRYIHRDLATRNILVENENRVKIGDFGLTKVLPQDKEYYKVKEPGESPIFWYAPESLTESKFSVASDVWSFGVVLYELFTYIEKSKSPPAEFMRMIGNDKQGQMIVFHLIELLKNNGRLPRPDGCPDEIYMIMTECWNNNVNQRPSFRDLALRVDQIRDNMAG
- Test Method Notes: phosphorylation enrichment, bacterial display (enrichment ratio); higher = better substrate or ligand; peptides without Tyr show the background
So basically every entry gets a class from its phosphorylation enrichment, ranges being bucket A: < 0.8; bucket B: ≥ 0.8 and < 1; bucket C: ≥ 1

Item Sequence: AFLLLCFNDTH [BMP15_Y235_Y235C]
Category Label: bucket C

Item Sequence: STGWSYAGVAV [KLHL3_Y577_R575W]
Category Label: bucket A

Item Sequence: LNECHYGALIG [BPGM_Y92_R90C]
Category Label: bucket B

Item Sequence: SSVKLYRVFCD [FGB_Y266_P265L_YF]
Category Label: bucket B

Item Sequence: EAEPFYCSLRD [NPHS1_Y1139_R1140C_YF]
Category Label: bucket C

Query: Categorize the following entry: NNDLCYWVPEL [IARS1_Y434]
Reply: bucket C

Query: # bin label for YFWDGYMPRQY [GSS_Y270_R267W]
Reply: bucket C

Query: Which phosphorylation enrichment category applies to RAILNYIASKF [GSTA3_Y74_YF] here?
Reply: bucket C

Query: Hi, small favor: classify FIAVGYVDDSQ [HLA-A_Y51_T55S] by its phosphorylation enrichment when you get a moment.
Reply: bucket B

Query: Hey, which category is LMIKEYLTKEL [BAG3_Y457_E455K] in, do you know?
Reply: bucket B

Query: Bin? DIRAQYDELAR [KRT18_Y256]
Reply: bucket C

Query: Textbook exercise: identify the category of the sequence given here, WISNRSLDFSS [PRPH2_Y184_Y184S] , according to its measured value.
Reply: bucket A

Query: Which band does WKEIEYEVVRD [CPS1_Y634] fall in?
Reply: bucket B

Query: Which bin, given its phosphorylation enrichment, does RRKRAYVEIEY [MAK16_Y282_Q277R] occupy?
Reply: bucket C

Query: Bin this entry: FQEKGYNKELR [CHRND_Y38]
Reply: bucket A

Query: Any idea which band VSGIPYSQPKQ [NEU1_Y251_G252S] is in?
Reply: bucket B

Query: Class (by measured phosphorylation enrichment) for FVTCTYSPALN [TP53_Y126_S121F]
Reply: bucket C

Query: Please classify: HSRTRYERNIE [F2_Y434]
Reply: bucket A

Query: For the record NHRNQYQALKT [CLSPN_Y887_P892T] , report the class its phosphorylation enrichment corresponds to.
Reply: bucket A

###

- Measured Target: Hck (UniProt P08631)
- Sequence (P08631 whole entry, looked up): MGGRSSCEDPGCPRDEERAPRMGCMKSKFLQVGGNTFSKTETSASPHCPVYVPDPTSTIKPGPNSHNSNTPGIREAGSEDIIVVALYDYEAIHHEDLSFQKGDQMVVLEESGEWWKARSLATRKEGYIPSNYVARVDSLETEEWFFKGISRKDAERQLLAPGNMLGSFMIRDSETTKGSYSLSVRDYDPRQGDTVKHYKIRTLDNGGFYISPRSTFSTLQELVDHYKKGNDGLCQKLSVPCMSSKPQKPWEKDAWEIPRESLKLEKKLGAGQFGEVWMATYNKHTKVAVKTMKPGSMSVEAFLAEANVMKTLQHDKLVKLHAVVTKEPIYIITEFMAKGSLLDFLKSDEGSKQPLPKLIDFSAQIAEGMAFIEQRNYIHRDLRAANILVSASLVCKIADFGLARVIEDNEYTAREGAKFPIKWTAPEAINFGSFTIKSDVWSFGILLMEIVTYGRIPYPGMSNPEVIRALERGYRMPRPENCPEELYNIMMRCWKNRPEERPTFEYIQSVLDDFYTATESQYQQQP
- Test Method Notes: phosphorylation enrichment, bacterial display (enrichment ratio); higher = better substrate or ligand; peptides without Tyr show the background
Experimental Endpoint: phosphorylation enrichment
Could you keep your reply to the number by itself?

Some sequences with known phosphorylation enrichment results, for comparison:
Item Sequence: GDGRFYMMEAI [PGM1_Y66_K68M]
Measured Target: Hck (UniProt P08631)
Measured Result: 0.459
--
Item Sequence: FLAVGYHMPHI [IDS_Y225_K227M]
Measured Target: Hck (UniProt P08631)
Measured Result: 0.51
--
Item Sequence: PGVDIYVSPNM [PADI3_Y51_I52V]
Measured Target: Hck (UniProt P08631)
Measured Result: 2.76
--
Item Sequence: DPEGAYTTRGG [EPHA3_Y779_A777G]
Measured Target: Hck (UniProt P08631)
Measured Result: 0.483
--
Item Sequence: LDYNEYFRNLN [HPRT1_Y198_D201N]
Measured Target: Hck (UniProt P08631)
Measured Result: 0.69

Query: Name the recorded phosphorylation enrichment for EEALFYLTRVE [SET_Y119_H118Y_YF] .
Reply: 0.68

Query: Item FLGKGYSDGGC [MC4R_Y35_S30F] has what recorded phosphorylation enrichment?
Reply: 0.579

Query: What measured phosphorylation enrichment goes with KINKMYSDHAM ?
Reply: 0.308

Query: Entry RALCHYFKLNI [ETV6_Y401_R399C_YF] : reported phosphorylation enrichment = ?
Reply: 0.776

Query: Sample PVPKTYDMLKA [PKP2_Y108] — what was its phosphorylation enrichment?
Reply: 1.46

Query: Using the record for TLSGTYQFIIA [FOXL2_Y81_I80T_YF] , report its phosphorylation enrichment.
Reply: 1.34

Query: Look up phosphorylation enrichment: KNKNRYKNVLP [PTPN11_Y279_I282V]
Reply: 0.412

Query: State the recorded phosphorylation enrichment for this entry: TLNFCYQQVKS [PTK2_Y148_F147C]
Reply: 0.52

###

- Measured Target: FGFR1 (UniProt P11362)
- Sequence (P11362 whole entry, looked up): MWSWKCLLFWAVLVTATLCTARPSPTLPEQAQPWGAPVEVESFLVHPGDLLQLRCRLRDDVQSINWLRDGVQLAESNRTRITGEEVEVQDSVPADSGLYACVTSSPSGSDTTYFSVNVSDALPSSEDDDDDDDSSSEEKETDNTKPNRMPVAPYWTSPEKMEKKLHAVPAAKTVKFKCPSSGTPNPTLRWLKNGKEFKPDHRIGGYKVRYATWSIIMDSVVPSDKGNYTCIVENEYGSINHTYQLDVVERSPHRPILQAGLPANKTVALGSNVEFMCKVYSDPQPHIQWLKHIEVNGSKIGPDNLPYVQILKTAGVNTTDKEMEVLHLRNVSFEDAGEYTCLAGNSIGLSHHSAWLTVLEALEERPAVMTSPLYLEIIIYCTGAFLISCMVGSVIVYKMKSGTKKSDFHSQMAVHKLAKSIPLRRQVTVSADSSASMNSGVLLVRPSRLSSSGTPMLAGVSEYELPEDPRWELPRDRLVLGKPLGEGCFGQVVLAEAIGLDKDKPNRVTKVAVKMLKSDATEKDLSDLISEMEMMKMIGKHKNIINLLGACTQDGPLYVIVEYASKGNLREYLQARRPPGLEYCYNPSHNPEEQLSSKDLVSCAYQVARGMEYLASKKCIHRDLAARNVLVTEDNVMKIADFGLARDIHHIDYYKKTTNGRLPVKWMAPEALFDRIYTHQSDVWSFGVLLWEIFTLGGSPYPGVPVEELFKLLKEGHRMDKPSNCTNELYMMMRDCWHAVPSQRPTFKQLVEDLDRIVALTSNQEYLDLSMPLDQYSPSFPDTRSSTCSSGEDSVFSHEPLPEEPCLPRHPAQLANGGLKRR
- Test Method Notes: phosphorylation enrichment, bacterial display (enrichment ratio); higher = better substrate or ligand; peptides without Tyr show the background
Experimental Endpoint: phosphorylation enrichment
Output: the number by itself.

Example cases with answers are listed next.
Item Sequence: PVPKTYDMLKA [PKP2_Y108]
phosphorylation enrichment: 0.766
//
Item Sequence: WNNLDYMDSRR [GAA_Y407_D404N]
phosphorylation enrichment: 0.538
//
Item Sequence: SVMAEYGLFGA [VSX2_Y219_YF]
phosphorylation enrichment: 0.488

Query: Item under review: RRAKGYPIFLF [ITGB2_Y125_D128Y_YF] . Reported phosphorylation enrichment?
Reply: 0.561

Query: Value lookup for phosphorylation enrichment; key = YDAHNYHPLPV [OAT_Y55_G51D]
Reply: 12.7

Query: Fill in: phosphorylation enrichment of SLHPGYNFRYA [P2RX7_Y291_Y288H] is ___
Reply: 0.431

Query: Form field: reported phosphorylation enrichment of FSLPAYMDRRD [COX4I1_Y38]
Reply: 0.464

Query: Entry under review: ETLLYYGYRRS [POR_Y564_C566Y] . Reported phosphorylation enrichment?
Reply: 1.3

Query: Entry NGVSYYINLCQ [IGF2R_Y2025] : reported phosphorylation enrichment = ?
Reply: 0.525

Query: Given the entry YETDYYRKGGK [INSR_Y1190] , report its measured phosphorylation enrichment.
Reply: 0.522

Query: What value of phosphorylation enrichment has been recorded for this entry: DIRAQYDELAR [KRT18_Y256]
Reply: 0.576

Query: So what does the record say about phosphorylation enrichment for TNLVPYTRIHF [TUBA1A_Y262_P263T] ?
Reply: 0.468

Query: Look up phosphorylation enrichment: QGIYGYHHHMQ [UFSP2_Y287_Y290H]
Reply: 0.613

###

- Measured Target: Grb2 SH2 (UniProt P62993)
- Sequence (P62993 whole entry, looked up): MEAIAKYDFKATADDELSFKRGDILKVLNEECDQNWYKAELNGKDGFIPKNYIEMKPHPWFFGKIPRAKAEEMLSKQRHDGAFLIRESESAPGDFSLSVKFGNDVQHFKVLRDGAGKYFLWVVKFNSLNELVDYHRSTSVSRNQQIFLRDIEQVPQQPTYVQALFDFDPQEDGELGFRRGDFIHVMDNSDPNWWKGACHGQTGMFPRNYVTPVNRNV
- Test Method Notes: SH2 binding enrichment of the phosphorylated peptide, bacterial display (enrichment ratio); higher = better substrate or ligand; peptides without Tyr show the background
Rule: SH2 binding enrichment of 0.9 or more gives yes (1); anything lower gives no (0).

Item Sequence: NHFKICNLCAE [PTEN_Y68_Y68C_YF]
Category Label: yes (1)
//
Item Sequence: KFFRVYQGQQP [MUTYH_Y494_V490F]
Category Label: yes (1)
//
Item Sequence: FRQLPYCPSVE [CTNND2_Y508_Q507P_YF]
Category Label: no (0)
//
Item Sequence: GMKIVYVYVKK [DNAI2_Y5_E2K]
Category Label: yes (1)

Query: Answer whether SH2 binding enrichment of DVMDFYKTLRG [NR3C1_Y30] is greater than or equal to 0.9.
Reply: no (0)

Query: Textbook exercise: given the entry GYCSWYRGWAP [TIMP3_Y195] , state whether its SH2 binding enrichment is greater than or equal to 0.9.
Reply: no (0)

Query: Entry SLIDGYFRLTA [JAK2_Y372_YF] : is its SH2 binding enrichment no less than 0.9?
Reply: yes (1)

Query: Entry IKGNMYYENSY [EGFR_Y112_R108K] : is its SH2 binding enrichment no less than 0.9?
Reply: yes (1)

###

- Measured Target: EPHB2 (UniProt P29323)
- Sequence (P29323 whole entry, looked up): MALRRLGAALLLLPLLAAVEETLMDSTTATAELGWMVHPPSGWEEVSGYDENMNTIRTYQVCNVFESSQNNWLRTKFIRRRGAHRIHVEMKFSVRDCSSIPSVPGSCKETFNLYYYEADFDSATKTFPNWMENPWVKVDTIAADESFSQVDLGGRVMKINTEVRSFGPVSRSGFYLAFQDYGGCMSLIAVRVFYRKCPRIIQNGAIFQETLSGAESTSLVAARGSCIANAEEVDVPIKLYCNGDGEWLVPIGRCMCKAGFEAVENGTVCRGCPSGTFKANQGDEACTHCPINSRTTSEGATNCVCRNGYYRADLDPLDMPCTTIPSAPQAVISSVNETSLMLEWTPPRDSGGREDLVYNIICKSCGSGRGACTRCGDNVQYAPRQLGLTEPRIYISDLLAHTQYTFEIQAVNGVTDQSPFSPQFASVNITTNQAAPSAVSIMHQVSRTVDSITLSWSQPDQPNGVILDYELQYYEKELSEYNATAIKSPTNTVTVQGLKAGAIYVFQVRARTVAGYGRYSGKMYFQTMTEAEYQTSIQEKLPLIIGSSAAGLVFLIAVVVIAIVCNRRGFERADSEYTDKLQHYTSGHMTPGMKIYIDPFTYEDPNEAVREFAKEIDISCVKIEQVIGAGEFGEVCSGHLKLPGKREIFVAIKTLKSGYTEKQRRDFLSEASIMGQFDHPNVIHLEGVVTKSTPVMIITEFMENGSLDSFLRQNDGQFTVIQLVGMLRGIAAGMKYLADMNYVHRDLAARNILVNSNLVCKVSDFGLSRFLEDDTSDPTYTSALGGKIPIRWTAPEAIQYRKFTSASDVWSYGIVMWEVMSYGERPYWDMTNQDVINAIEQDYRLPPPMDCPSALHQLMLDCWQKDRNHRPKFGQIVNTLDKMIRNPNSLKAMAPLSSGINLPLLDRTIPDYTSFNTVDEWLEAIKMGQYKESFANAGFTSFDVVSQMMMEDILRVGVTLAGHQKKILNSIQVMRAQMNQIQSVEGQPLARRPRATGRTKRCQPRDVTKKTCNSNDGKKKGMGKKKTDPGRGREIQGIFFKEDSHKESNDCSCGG
- Test Method Notes: phosphorylation enrichment, bacterial display (enrichment ratio); higher = better substrate or ligand; peptides without Tyr show the background
Experimental Endpoint: phosphorylation enrichment

The following sequences have reported results that may help.
Item Sequence: AEKPKYQINNI [TJP1_Y1602]
phosphorylation enrichment: 0.802

Item Sequence: YIATQYSLCPR [LBR_Y166_R169C]
phosphorylation enrichment: 0.817

Below: the item to evaluate.
Query: What measured phosphorylation enrichment goes with RLSELYLRRNR [CFAP410_Y68] ?
Reply: 0.807

// provenance: the supplement of paper PMC10065799
